Value source: ChEMBL document CHEMBL1134749

tested-on: Nicotinic acetylcholine receptor alpha3/betaX
protocol: Antagonistic activity against neuronal nicotinic acetylcholine receptor (alpha3-betaX subunit) in IMR 32 cell line using 100 uM of (-)-nicotine as agonist
observation-type: EC50 (µM)
Just the number in µM, nothing appended.

Input: What measured EC50 goes with `CN1CCC[C@H]1COc1cncc(-c2cncnc2)c1` ?
Output: 32.4

---

tested-on: Neuronal acetylcholine receptor; alpha4/beta2 (Rattus norvegicus, UniProt P09483+P12390)
Sequence (P09483 whole entry): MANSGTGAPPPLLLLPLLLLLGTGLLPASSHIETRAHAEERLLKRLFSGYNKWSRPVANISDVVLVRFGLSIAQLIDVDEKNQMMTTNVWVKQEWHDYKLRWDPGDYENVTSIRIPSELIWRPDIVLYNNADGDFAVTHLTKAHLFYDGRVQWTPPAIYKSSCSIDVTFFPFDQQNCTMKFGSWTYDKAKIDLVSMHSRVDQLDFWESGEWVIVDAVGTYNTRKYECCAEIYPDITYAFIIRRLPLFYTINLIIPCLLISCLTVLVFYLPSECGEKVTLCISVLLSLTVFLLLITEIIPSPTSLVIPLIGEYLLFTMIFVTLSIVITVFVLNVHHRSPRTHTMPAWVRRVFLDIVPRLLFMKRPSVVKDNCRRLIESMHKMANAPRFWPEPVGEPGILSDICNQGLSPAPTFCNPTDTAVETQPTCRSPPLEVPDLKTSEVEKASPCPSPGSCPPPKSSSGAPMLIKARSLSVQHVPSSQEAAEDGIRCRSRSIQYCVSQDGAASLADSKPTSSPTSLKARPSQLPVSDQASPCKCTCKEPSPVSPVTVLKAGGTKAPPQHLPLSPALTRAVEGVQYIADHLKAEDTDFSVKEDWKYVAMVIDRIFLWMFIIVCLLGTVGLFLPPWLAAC
Sequence (P12390 whole entry): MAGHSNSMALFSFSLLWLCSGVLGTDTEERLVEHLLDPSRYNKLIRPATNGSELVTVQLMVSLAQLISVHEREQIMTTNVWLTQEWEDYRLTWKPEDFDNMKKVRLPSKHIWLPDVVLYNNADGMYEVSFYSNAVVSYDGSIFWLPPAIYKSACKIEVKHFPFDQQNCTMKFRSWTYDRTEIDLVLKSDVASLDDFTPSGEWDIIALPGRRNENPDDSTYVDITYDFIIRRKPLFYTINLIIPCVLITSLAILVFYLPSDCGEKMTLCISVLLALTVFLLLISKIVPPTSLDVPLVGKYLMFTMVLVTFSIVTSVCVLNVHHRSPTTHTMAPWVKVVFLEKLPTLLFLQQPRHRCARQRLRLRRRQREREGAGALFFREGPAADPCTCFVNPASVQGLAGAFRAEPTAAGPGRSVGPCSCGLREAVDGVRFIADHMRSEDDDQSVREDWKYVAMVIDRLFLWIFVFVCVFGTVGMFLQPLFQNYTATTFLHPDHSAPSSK
protocol: In vitro ability to displace [3H](-)-cytisine binding to whole rat brain membranes at Nicotinic acetylcholine receptor alpha4-beta2
Kindly state pKi for each of the entries shown.
The scale used: pKi is minus the common logarithm of the concentration in molar units.

Input: What measured pKi goes with `CN1CCC[C@H]1COc1cncc(/C=C/c2ccncc2)c1` ?
Output: 9.92

Input: What measured pKi goes with `Cc1ccc(C#Cc2cncc(OC[C@@H]3CCCN3C)c2)cc1` ?
Output: 9.51

Input: What measured pKi goes with `CN1CCC[C@H]1COc1cncc(-c2cc3ccccc3o2)c1` ?
Output: 9.82

Input: What measured pKi goes with `CN1CCC[C@H]1COc1cncc(-c2cncnc2)c1` ?
Output: 9.43

---

tested-on: Nicotinic acetylcholine receptor alpha3/betaX
protocol: Antagonistic activity against neuronal nicotinic acetylcholine receptor (alpha3-betaX subunit) in IMR 32 cell line using 100 uM of (-)-nicotine as agonist
Rule: IC50 below 6 µM gives Condition met, anything at or above gives Condition not met.

Input: Find out if reported IC50 for `CN1CCC[C@H]1COc1cncc(-c2ccco2)c1` is less than 6 µM
Output: Condition not met

Input: Find out if reported IC50 for `CN1CCC[C@H]1COc1cncc(-c2ccccc2C=O)c1` is less than 6 µM
Output: Condition not met

Input: Find out if reported IC50 for `CN1CCC[C@H]1COc1cncc(-c2cccc([N+](=O)[O-])c2)c1` is less than 6 µM
Output: Condition met

Input: Find out if reported IC50 for `CN1CCC[C@H]1COc1cncc(/C=C/c2ccncc2)c1` is less than 6 µM
Output: Condition not met

Input: Find out if reported IC50 for `CN1CCC[C@H]1COc1cncc(-c2ccc3ccccc3c2)c1` is less than 6 µM
Output: Condition met

Input: Find out if reported IC50 for `CN1CCC[C@H]1COc1cncc(-c2cccnc2)c1` is less than 6 µM
Output: Condition not met

Input: Find out if reported IC50 for `CN1CCC[C@H]1COc1cncc(-c2ccc(Cl)cc2)c1` is less than 6 µM
Output: Condition met

Input: Find out if reported IC50 for `CN1CCC[C@H]1COc1cncc(-c2cnc3ccccc3c2)c1` is less than 6 µM
Output: Condition met

Input: Find out if reported IC50 for `CN1CCC[C@H]1COc1cncc(-c2cc3ccccc3o2)c1` is less than 6 µM
Output: Condition met

Input: Find out if reported IC50 for `CN1CCC[C@H]1COc1cncc(-c2ccc(F)cc2)c1` is less than 6 µM
Output: Condition not met

Input: Find out if reported IC50 for `COc1ccc(-c2cncc(OC[C@@H]3CCCN3C)c2)cc1` is less than 6 µM
Output: Condition not met

Input: Find out if reported IC50 for `Cc1ccc(-c2cncc(OC[C@@H]3CCCN3C)c2)cc1` is less than 6 µM
Output: Condition met

Input: Find out if reported IC50 for `CN1CCC[C@H]1COc1cncc(C#Cc2ccccc2)c1` is less than 6 µM
Output: Condition met

Input: Find out if reported IC50 for `CN1CCC[C@H]1COc1cncc(CCc2ccncc2)c1` is less than 6 µM
Output: Condition not met

Input: Find out if reported IC50 for `CN1CCC[C@H]1COc1cncc(-c2cccc3ccccc23)c1` is less than 6 µM
Output: Condition met

Input: Find out if reported IC50 for `CN1CCC[C@H]1COc1cncc(-c2ccc(C(F)(F)F)cc2)c1` is less than 6 µM
Output: Condition met

Input: Find out if reported IC50 for `Cc1ccc(C#Cc2cncc(OC[C@@H]3CCCN3C)c2)cc1` is less than 6 µM
Output: Condition met

Input: Find out if reported IC50 for `CN1CCC[C@H]1COc1cncc(-c2cc(C(F)(F)F)cc(C(F)(F)F)c2)c1` is less than 6 µM
Output: Condition met

Input: Find out if reported IC50 for `CN1CCC[C@H]1COc1cncc(-c2cccs2)c1` is less than 6 µM
Output: Condition met

Input: Find out if reported IC50 for `CN1CCC[C@H]1COc1cncc(-c2ccccc2)c1` is less than 6 µM
Output: Condition met

Input: Find out if reported IC50 for `CN1CCC[C@H]1COc1cncc(-c2ccc(F)c(Cl)c2)c1` is less than 6 µM
Output: Condition not met

Input: Find out if reported IC50 for `CN1CCC[C@H]1COc1cncc(CCc2ccccc2)c1` is less than 6 µM
Output: Condition met

Input: Find out if reported IC50 for `CN1CCC[C@H]1COc1cncc(/C=C/c2ccccc2)c1` is less than 6 µM
Output: Condition met

Input: Find out if reported IC50 for `Cc1ccccc1-c1cncc(OC[C@@H]2CCCN2C)c1` is less than 6 µM
Output: Condition met

Input: Find out if reported IC50 for `CN1CCC[C@H]1COc1cncc(-c2cccc(N)c2)c1` is less than 6 µM
Output: Condition not met

Input: Find out if reported IC50 for `CN1CCC[C@H]1COc1cncc(-c2ccc(Cl)cc2Cl)c1` is less than 6 µM
Output: Condition met
